target desc: Nucleic Acid
test name: Binding affinity to HIV 1 SL3 RNA by ITC analysis
Format: nucleic-acid assay, Human immunodeficiency virus 1
recorded conditions: read-out: Kd(app)
metric name: Kd (µM)
One number for each entry, in µM.

The following compounds have reported results that may help.
- compound: "O=C1NC(=S)NC(=O)C1=Cc1cn(-c2ccccc2)nc1-c1cc2c(ccc3ccccc32)oc1=O"
  result units: "µM"
  Kd: 68
- compound: "Cc1cccn2c(=O)c3cc(C(=O)N4CCN(C)CC4)c(=N)n(CC4CCCO4)c3nc12 (stereo not drawn)"
  result units: "µM"
  Kd: 14.5

Here is another compound to look at.
# input Give the measured Kd of Nc1c(S(=O)(=O)O)cc(Nc2ccc(S(N)(=O)=O)cc2)c2c1C(=O)c1ccccc1C2=O .
# output 11

* * *

target desc: Nucleic Acid
test name: Binding affinity to HIV 1 SL3 RNA assessed as second binding dissociation constant by ITC analysis
Type: nucleic-acid assay, Human immunodeficiency virus 1
recorded conditions: read-out: Kd(app)
Could you please report measured pKd for the items listed next?
Give bare numbers, as −log10 of the molar value.

- chemical smiles: "O=C1NC(=S)NC(=O)C1=Cc1cn(-c2ccccc2)nc1-c1cc2c(ccc3ccccc32)oc1=O"
  metric name: "pKd"
  recorded value: 3.31

Shift focus to the following entry.
# input Which pKd value is on record for Nc1c(S(=O)(=O)O)cc(Nc2ccc(S(N)(=O)=O)cc2)c2c1C(=O)c1ccccc1C2=O ?
# output 1.96

* * *

target desc: Nucleic Acid
test name: Destabilization of HIV1 [32P]-labeled SL3 RNA-NCp complex assessed as displacement of NCp from SL3 RNA after 1 hr by electrophoretic gel mobility shift assay
Exercise: for every item that follows, state its recorded IC50.
Record the result as a number with its unit.

Below, each entry is followed by its recorded IC50 result.
- chemical smiles: "Nc1c(S(=O)(=O)O)cc(Nc2ccc(S(N)(=O)=O)cc2)c2c1C(=O)c1ccccc1C2=O"
  IC50: "70 µM"
- chemical smiles: "O=C1NC(=S)NC(=O)C1=Cc1cn(-c2ccccc2)nc1-c1cc2c(ccc3ccccc32)oc1=O"
  IC50: "123 µM"
- chemical smiles: "O=C1Oc2ccccc2C(=O)/C1=C/N1C(=O)N/C(=C\\c2ccccc2O)C1=O"
  IC50: "340 µM"

Query molecule follows.
# input Any idea what IC50 was measured for O=C1c2ccccc2C(=O)c2c(NCCO)ccc(NCCO)c21 ?
# output 700 µM

* * *

target desc: Nucleic Acid
test name: Binding affinity to double stranded RNA assessed as second binding dissociation constant by ITC analysis
Assay type: nucleic-acid assay
recorded conditions: read-out: Kd(app)
metric name: Kd (µM)
Answers are plain numbers, in µM.

# input I'd like to know its Kd. The compound in question is Cc1cccn2c(=O)c3cc(C(=O)N4CCN(C)CC4)c(=N)n(CC4CCCO4)c3nc12 (stereo unspecified)
# output 2400

* * *

target desc: Nucleic Acid
test name: Binding affinity to single stranded RNA assessed as second binding dissociation constant by ITC analysis
Assay type: nucleic-acid assay
recorded conditions: read-out: Kd(app)
metric name: Kd (mM)
One number for each entry, in mM.

# input Entry Cc1cccn2c(=O)c3cc(C(=O)N4CCN(C)CC4)c(=N)n(CC4CCCO4)c3nc12 (stereo unspecified) has what Kd?
# output 12

* * *

target desc: Nucleic Acid
test name: Binding affinity to single stranded RNA by fluorescence spectrometry
Type: nucleic-acid assay
recorded conditions: read-out: Kd(app)
metric name: pKd
Give bare numbers, as −log10 of the molar value.

Sample answers from the record:
- chemical smiles: "O=C1NC(=S)N/C1=C/c1ccc2ccccc2c1"
  pKd: 5.12
- chemical smiles: "Cc1cccn2c(=O)c3cc(C(=O)NCCN4CCOCC4)c(=N)n(Cc4cccnc4)c3nc12"
  pKd: 4.93

Each compound below has a reported value. Please supply its pKd.
1. CNC(=O)c1cc2c(=O)n3cccc(C)c3nc2n(CCCO)c1=N
2. N=C1NC(=O)/C(=C\c2ccc3ccccc3c2)S1

# output
[5.02, 5.05]

* * *

I'd be grateful if you could share measured pKd for these entries.
target desc: Nucleic Acid
test name: Binding affinity to double stranded RNA by fluorescence spectrometry
Type: nucleic-acid assay
recorded conditions: read-out: Kd(app)
Numbers only, as −log10 of the molar value.

Here are 2 molecules together with their reported answers.
- molecule: "CNC(=O)c1cc2c(=O)n3cccc(C)c3nc2n(CCCO)c1=N"
  recorded value: 5.09
- molecule: "COc1ccc(NCc2ccc([N+](=O)[O-])s2)cc1OC"
  recorded value: 5.08

# context switch: different molecule, same pKd
# input What does the data say about its pKd? Entry: Cc1cccn2c(=O)c3cc(C(=O)NC(C)c4ccccc4)c(=N)n(CCOCCO)c3nc12 (stereo not drawn)
# output 5.29

* * *

target desc: Nucleic Acid
test name: Binding affinity to HIV 1 fluorescein-labeled SL3 RNA by fluorescence spectrometry
Type: nucleic-acid assay, Human immunodeficiency virus 1
recorded conditions: read-out: Kd(app)
Kindly supply the reported Kd values for the records listed here.
One number for each entry, in µM.

Use these answered entries as a reference point.
- chemical smiles: "O=[N+]([O-])c1ccc(SCCO)c2ncccc12"
  Kd, µM: 90
- chemical smiles: "COc1ccc(NCc2ccc([N+](=O)[O-])s2)cc1OC"
  Kd, µM: 11.1
- chemical smiles: "Cc1cccn2c(=O)c3cc(C(=O)NCCN4CCOCC4)c(=N)n(Cc4cccnc4)c3nc12"
  Kd, µM: 5
- chemical smiles: "O=C1NC(=S)N/C1=C/c1ccc2ccccc2c1"
  Kd, µM: 13.2

Could I get Kd for every one of these entries?
1. CN1CCN(CCCN2c3ccccc3Sc3ccc(C(F)(F)F)cc32)CC1
2. CNC(=O)c1cc2c(=O)n3cccc(C)c3nc2n(CCCO)c1=N

# output
1: 1.7; 2: 3.5

Please state, for each entry, its recorded Kd.
1. N=C1NC(=O)/C(=C\c2ccc3ccccc3c2)S1
2. Nc1ccccc1NCCOc1ccccc1

# output
11
51
